Biological target: GST-RIPK1 (recombinant GST-RIPK1 kinase domain (residues 1-327)) (Homo sapiens)
Construct: recombinant GST-RIPK1 kinase domain (residues 1-327) enzyme
Sequence (Q13546 1-327): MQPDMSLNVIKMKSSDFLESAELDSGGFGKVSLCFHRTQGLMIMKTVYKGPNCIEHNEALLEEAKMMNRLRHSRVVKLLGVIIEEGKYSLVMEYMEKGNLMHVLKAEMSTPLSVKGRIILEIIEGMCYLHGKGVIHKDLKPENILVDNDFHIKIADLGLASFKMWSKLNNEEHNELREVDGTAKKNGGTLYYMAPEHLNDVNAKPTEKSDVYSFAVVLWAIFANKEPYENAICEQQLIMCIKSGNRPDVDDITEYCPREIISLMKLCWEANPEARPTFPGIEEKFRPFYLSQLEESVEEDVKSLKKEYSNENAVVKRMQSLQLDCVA
Assay: RIPK1-ADP-Glo enzymatic assay
Conditions: 25 nM GST-RIPK1, 300 μM ATP, 3 μM dephosphorylated-MBP; 30 minutes pre-incubation, 150 minutes reaction; ten-point titration
assayMetric: IC50 (nM)

As a guide, the following entries are already answered.
molecule	IC50 (nM)
N#Cc1cncc2c1O[C@H]1C[C@@H]2N(C(=O)C23CCCCC2C3)C1 (some centres unmarked)	77
CN1CC2CC1(C(=O)N1C[C@@H]3C[C@H]1c1cncc(C#N)c1O3)C2	241
N#Cc1cncc2c1S[C@H]1C[C@@H]2N(C(=O)C2(C#N)CCC2)C1	49

P = CC(C)(C)C(=O)N1C[C@@H]2C[C@H]1c1cncc(C#N)c1O2
Q = CC1(C(=O)N2C[C@@H]3C[C@H]2c2cncc(C#N)c2O3)CC1C(F)(F)F (some centres unmarked)
Query block: Response body: label of entry with the larger IC50; valid values P , Q . Lab log: write the label of the selected item as the result.
Result block: Q
(Q: 78 nM, P: 50 nM)

###

molecular target: GST-RIPK1 (recombinant GST-RIPK1 kinase domain (residues 1-327)) (Homo sapiens, UniProt Q13546); construct: recombinant GST-RIPK1 kinase domain (residues 1-327) enzyme; assay: RIPK1-ADP-Glo enzymatic assay; conditions: 25 nM GST-RIPK1, 300 μM ATP, 3 μM dephosphorylated-MBP; 30 minutes pre-incubation, 150 minutes reaction; ten-point titration
assayMetric: IC50 (nM)

molecule	u	IC50
CC(C)(C)C(=O)N1C[C@@H]2C[C@H]1c1cncc(C#Cc3cc(C(F)(F)F)ccn3)c1O2	nM	176
O=C(N1C[C@@H]2C[C@H]1c1cncc(Cl)c1O2)C12CCC(F)(CC1)C2	nM	8

a = N#Cc1cncc2c1S[C@H]1C[C@@H]2N(C(=O)C2(C#N)CCCC2)C1
b = N#Cc1cncc2c1S[C@H]1C[C@@H]2N(C(=O)C23CCC(F)(CC2)C3)C1
Query block: Response body: label of entry with the larger IC50; valid values a , b . Lab log: write the label of the selected item as the result.
Result block: a
(a: 27 nM, b: 12 nM)

###

Molecular target: GST-RIPK1 (recombinant GST-RIPK1 kinase domain (residues 1-327)) (Homo sapiens)
Construct: recombinant GST-RIPK1 kinase domain (residues 1-327) enzyme
Assay: RIPK1-ADP-Glo enzymatic assay
Settings: 25 nM GST-RIPK1, 300 μM ATP, 3 μM dephosphorylated-MBP; 30 minutes pre-incubation, 150 minutes reaction; ten-point titration
Procedure: The enzymatic activity of RIPK1 is measured using an assay derived from ADP-Glo kit (Promega™), which provides a luminescent-based ADP detection system. Specifically, the ADP generated by RIPK1 kinase is proportionally detected as luminescent signals in a homogenous fashion. In this context, the assessment of the inhibitory effect of small molecules (EC50) is measured by the effectiveness of the compounds to inhibit the ATP to ADP conversion by RIPK1. […]
assayMetric: IC50 (µM)

compound	assayMetric	dataValue
O=C(N1C[C@@H]2C[C@H]1c1cncc(C#Cc3ccc(F)cc3F)c1O2)C12CCC(C(F)(F)F)(CC1)C2 [Compound 2-59]	IC50	0.022

A = N#Cc1cncc2c1O[C@H]1C[C@@H]2N(C(=O)C2(F)CCN(c3ccnc4c(F)cnn34)CC2)C1 [Compound 1-55]
B = N#Cc1cncc2c1O[C@H]1C[C@@H]2N(C(=O)[C@H]2C[C@H](Oc3ccc(F)cc3F)C2)C1 [Compound 1-102]
C = Cc1ncc(C#Cc2cncc3c2O[C@H]2C[C@@H]3N(C(=O)C(C)(C)C(F)F)C2)cn1 [Compound 2-76]
Query block: rank_up(items): orders items by reported IC50 in ascending numerical order. Thanks in advance for listing the labels in the requested order.
Result block: A, C, B
